System: Fibroblast
measurement-protocol: Multiplex assay against human fibroblast
Type: toxicity, cell-based
conditions: 12 h, 10 µM, compound concentration 10 uM, replicate 1
Tag: Satisfied if measured Population Normal (%) is not below 70%, Not satisfied if it is.

[[record]]
compound = "O=C1N/C(=N/c2ccccc2F)S/C1=C\\c1ccc(C(=O)O)cc1"
assay_system = "Fibroblast"
class = "Not satisfied"

[[record]]
compound = "CCN1CCN(c2ccc(Nc3cc(N(C)C(=O)Nc4c(Cl)c(OC)cc(OC)c4Cl)ncn3)cc2)CC1 [INFIGRATINIB]"
assay_system = "Fibroblast"
class = "Satisfied"

[[record]]
compound = "COc1ccc(-c2ccc3c(N4CCOCC4)nc(N4C[C@@H](C)O[C@@H](C)C4)nc3n2)cc1CO [Ku-0063794]"
assay_system = "Fibroblast"
class = "Not satisfied"

[[record]]
compound = "CN1CCN(C(=O)C(C)(C)c2ccc(C(=O)Nc3cn4cc(-c5cc(C(C)(C)C)cc(C(C)(C)C)c5)ccc4n3)cc2)CC1 [T3-CLK-N]"
assay_system = "Fibroblast"
class = "Satisfied"

[[record]]
compound = "CN1CCC(=C2c3ccccc3CC(=O)c3sccc32)CC1.O=C(O)/C=C/C(=O)O [KETOTIFEN FUMARATE]"
assay_system = "Fibroblast"
class = "Satisfied"

[[record]]
compound = "CN(C)C(=O)C(CCN1CCC(O)(c2ccc(Cl)cc2)CC1)(c1ccccc1)c1ccccc1.Cl [LOPERAMIDE HYDROCHLORIDE]"
assay_system = "Fibroblast"
class = "Satisfied"

[[record]]
compound = "CCc1cccc(CC)c1NC(=O)c1nn(C)c2c1CCc1cnc(Nc3ccc(N4CCN(C)CC4)cc3OC)nc1-2"
assay_system = "Fibroblast"
class = "Satisfied"

[[record]]
compound = "Cl.Oc1ccc2c3c1O[C@H]1c4[nH]c5c(c4C[C@@]4(O)[C@@H](C2)N(CC2CC2)CC[C@]314)C[C@@]1(O)[C@H]2Cc3ccc(O)c4c3[C@@]1(CCN2CC1CC1)[C@H]5O4"
assay_system = "Fibroblast"
class = "Satisfied"

[[record]]
compound = "COc1cccc2cc(-c3nc([C@H]4CC[C@H](C(=O)O)CC4)n4ncnc(N)c34)[nH]c12 [OSI-027]"
assay_system = "Fibroblast"
class = "Satisfied"


###

Tested on: U2OS
measurement-protocol: Multiplex assay against U2OS
Assay type: toxicity, cell-based
conditions: human, 12 h, 1 µM, compound concentration 1 uM, replicate 2
Kindly apply the following: true if Population Tubulin-Different-Phenotype (%) is less than 30%, false in every other case.

[[record]]
smiles_entry = "Cl.O=C(c1ccc(Nc2nccc(-c3cc4ccccc4s3)n2)cc1)N1CCC(N2CCCC2)CC1"
class = "true"

[[record]]
smiles_entry = "O=C(Nc1ccc(-c2ccnc(Nc3ccc(N4CCOCC4)cc3)n2)cc1)[C@@H]1CCCN1"
class = "true"

[[record]]
smiles_entry = "CCCn1c(=O)c2[nH]c(-c3cnn(Cc4cccc(C(F)(F)F)c4)c3)nc2n(CC)c1=O"
class = "true"

[[record]]
smiles_entry = "COc1ccc(S(=O)(=O)N(CCO)c2ccccc2CN(C)C/C=C/c2ccc(Cl)cc2)cc1.O=P(O)(O)O"
class = "false"

[[record]]
smiles_entry = "O=C(Nc1cccnn1)N1CCC(=Cc2cccc(Oc3ccc(C(F)(F)F)cn3)c2)CC1"
class = "true"

[[record]]
smiles_entry = "S=C(NCCCc1c[nH]cn1)NCCCN(Cc1ccc(Cl)c(Cl)c1)c1ccc(Br)cn1"
class = "true"

[[record]]
smiles_entry = "Cc1cn(-c2cc(NC(=O)c3ccc(C)c(Nc4nccc(-c5cccnc5)n4)c3)cc(C(F)(F)F)c2)cn1"
class = "true"

[[record]]
smiles_entry = "CN([C@@H](Cc1ccc(OS(=O)(=O)c2cccc3cnccc23)cc1)C(=O)N1CCN(c2ccccc2)CC1)S(=O)(=O)c1cccc2cnccc12"
class = "false"

